- Tested on: MOLT-4
- test_description: NCI tumour cell line growth inhibition, 48 h
Calls of active or inactive are those of the source. No stated cut-off is given here; in the data, active = GI50 up to about 1.1 µM and inactive = higher.
Pick one: label 1 = active, label 0 = inactive

Solved entries (count: 5):
compound	answer_label
COC(=O)/C=C\C(C#N)(C#N)/N=C/c1sccc1C	label 0
CC(C)(C)OC(=O)c1ccc(NCc2cc(O)ccc2O)cc1	label 1
CC1CC2=C(S(=O)(=O)c3ccccc3)CC(S(=O)(=O)c3ccccc3)(S(=O)(=O)c3ccccc3)CC21 (configuration not stated)	label 0
O=C(N/C(=C\c1ccc(Cl)cc1)c1nc2ccccc2[nH]1)c1ccccc1	label 0
COC(=O)C1(C(=O)OC)CC2=C(S(=O)(=O)c3ccccc3)C[C@H](S(=O)(=O)c3ccccc3)[C@H]2C1	label 0

Answer briefly: the call reported for CC(=O)Oc1ccc(/C=C/C(=O)O[C@H]2CCCC[C@@H]2OC(=O)/C=C/c2ccc(OC(C)=O)c(OC(C)=O)c2)cc1OC(C)=O in this assay.
label 0

Then O=c1[nH]c2[nH]c(-c3ccc(Br)cc3)cc2c2ccccc12 ?
label 0

---

- Test system: DMS-273
- test_description: NCI tumour cell line growth inhibition, 48 h
Active and inactive are the calls of the source. Rule as the data show it: active = GI50 up to about 1.1 µM and inactive = higher.
Pick one: active, inactive

molecule	answer_label
Cc1ccc(S(=O)(=O)c2ccc(C)cc2[N+](=O)[O-])cc1	inactive
CN(C)CCNC(=O)c1cc2ccccc2c2nc3ccccc3nc12	active
Cc1cc(=O)c2c([nH]1)NS(=O)(=O)NC2=O	inactive
NNC(=O)CC(=O)Nc1ccccc1F	inactive
C=C/C=C(\NC(=O)C(Cl)(Cl)Cl)[Si](C)(C)C	inactive
Cc1cc(C)c([O-])c(-[n+]2c(-c3ccccc3)cc(-c3ccccc3)cc2-c2ccccc2)c1	inactive

Answer briefly: the call reported for C(=C\c1c2oc(-c3ccccc3)cc(-c3ccccc3)c-2c2ccccc12)/C=C1\c2ccccc2-c2c(-c3ccccc3)cc(-c3ccccc3)[o+]c21.[O-][Cl+3]([O-])([O-])[O-] in this assay.
inactive

Then Cc1c2cc[n+](C)cc2c(C)c2c1[nH]c1ccc(O)c(OCC(F)(F)F)c12 ?
inactive

Then N#Cc1ccc(Cc2ccccn2)cc1Cl ?
inactive

Then CCN1C2=NC(=O)N(C)C(=O)C2(Cl)C(C(SC)S(=O)(=O)c2ccc(C)cc2)c2ccccc21 (stereo not drawn) ?
inactive

Then C[N+](C)(C)CCc1ccccc1 ?
inactive

Then COC(=O)C1C=CCON2CCc3c(n(S(=O)(=O)c4ccccc4)c4ccccc34)C12 (stereo not drawn) ?
inactive

Then CN(C)/N=N/c1ccccc1 ?
inactive

---

- Tested on: KM12
- test_description: NCI tumour cell line growth inhibition, 48 h
Active and inactive are the calls of the source. Cut-off read from the data, not from the text of the source: active = GI50 up to about 1.1 µM and inactive = higher.
result_type: GI50

compound	result_type	reported_value
COc1cc(C2c3cc4c(cc3C3OC[C@@H]2C3CO)OCO4)cc(OC)c1OC (some centres not stated)	GI50	23 µM (inactive)

Item under review: C[n+]1c2ccccc2n2c3ccccc3c(NCCCN3CCOCC3)c(C#N)c21 . Reported GI50?
1.61 µM (inactive)

Then O=C1NC(O)CCN1C1OC(CO)C(O)C1O (configuration not stated) ?
> 250 µM (inactive)

---

- Test system: SW-620
- test_description: NCI tumour cell line growth inhibition, 48 h
Activity calls are given as the source filed them. Cut-off read from the data, not from the text of the source: active = GI50 up to about 1.1 µM and inactive = higher.
result_type: GI50

compound	GI50
COc1cc2cc(C(=O)N3CC(COS(C)(=O)=O)c4c3cc(N)c3ccccc43)[nH]c2c(OC)c1OC (stereo unspecified)	0.0148 µM (active)
CC1(C)CC(=O)C(=CNc2nc(-c3ccc(Br)cc3)cs2)C(=O)C1	42.9 µM (inactive)
CCOP(=O)(OCC)/C(=C/c1ccccc1)CC(C)=O	> 100 µM (inactive)

Item under review: Cc1ccc(/N=N/C(C(=O)c2ccccc2)C(=O)c2ccccc2)cc1 . Reported GI50?
29.1 µM (inactive)

Then CCO[C@@]1(COCc2ccccc2)OC(=O)C[C@@H]1N1C(=O)OC[C@@H]1c1ccccc1 ?
> 100 µM (inactive)

Then COC(=O)C(F)C(Br)C(=O)OC (stereo unspecified) ?
1.95 µM (inactive)

---

- Tested on: MCF7
- test_description: NCI tumour cell line growth inhibition, 48 h
Calls of active or inactive are those of the source. Cut-off read from the data, not from the text of the source: active = GI50 up to about 1.1 µM and inactive = higher.
The following molecules are listed with their measured GI50 values.

Sample answers from the record:
molecule	GI50
CC(C)/C(Cl)=N\OC(=O)Nc1ccc(S(N)(=O)=O)cc1	12.1 µM (inactive)
CC1OC(O[C@H]2/C=C/C=C/C=C/C=C/C=C/C=C/C=C/[C@H](C)[C@@H](O)[C@@H](C)[C@H](C)OC(=O)C[C@H](O)C[C@H](O)CC[C@@H](O)[C@H](O)C[C@H](O)C[C@]3(O)C[C@H](O)[C@@H](C(=O)O)[C@H](C2)O3)C(O)C(N)C1O (some centres undefined)	20.5 µM (inactive)
CC(=N\c1ccncc1)/C(C)=N/c1ccncc1	16.7 µM (inactive)

Under MCF7: GI50 value of COc1ccccc1N1C(=O)/C(=C\c2cc(OC)c(OC)c(OC)c2)SC1c1ccccc1 (centres undefined) ?
18.2 µM (inactive)

---

- Test system: TK-10
- test_description: NCI tumour cell line growth inhibition, 48 h
Active and inactive are the calls of the source. No stated cut-off is given here; in the data, active = GI50 up to about 1.1 µM and inactive = higher.
result_type: GI50

Sample answers from the record:
molecule	GI50
CN(C)C(=O)N1N[C@H](c2ccccc2)[C@@H]1c1ccccc1	> 100 µM (inactive)
Cc1cc(=O)c2c([nH]1)NS(=O)(=O)NC2=O	> 100 µM (inactive)
CN1C(=O)[C@H](c2c[nH]c3ccccc23)[C@H](c2c[nH]c3ccccc23)C1=O	22 µM (inactive)

Under TK-10: GI50 value of Cn1c2ccccc2c2c(-c3ccccc3)[n+]3ccccc3nc21 ?
31.9 µM (inactive)

---

- Test system: 786-0
- test_description: NCI tumour cell line growth inhibition, 48 h
The source made the active and inactive calls. Rule as the data show it: active = GI50 up to about 1.1 µM and inactive = higher.
Pick one: true = active, false = inactive

Solved entries (count: 5):
molecule	answer_label
CCOC(=O)C1=C(N2CCCC2)NC(=O)CC1=O	false
O=C(N/C(=C\c1ccc(Cl)cc1)c1nc2ccccc2[nH]1)c1ccccc1	false
C=CCN1C(=O)CNC1=S	false
c1ccc(COC2NCCN2Cc2ccccc2)cc1 (configuration not stated)	false
O=C(/C=C\c1ccccc1)Oc1ccc(/C=C2\CCCCC2=O)cc1	false

Answer briefly: the call reported for N=C(N)N/N=C/c1c(-c2cc([N+](=O)[O-])c(Cl)cc2Cl)nc2n1CCS2 in this assay.
false

Then COc1cccc(/C=C/C2=NN(c3cccc(S(=O)(=O)O)c3)C3(C2)SCC(=O)N3c2nc3ccccc3s2)c1 (configuration not stated) ?
false

Then C[N+](C)(C)CC(=O)NC(=O)N/N=C\C(CC#N)CN(Cc1ccccc1)Cc1ccccc1 (configuration not stated) ?
false

Then COc1ccc2[nH]cc(CCNC(=O)[C@](O)(Cc3cn(C)c4ccccc34)[C@@]3(O)OCC(O)C3O)c2c1 (some centres not stated) ?
false

Then COc1ccccc1C(=O)c1c(NCc2ccccc2)c(=O)c1=O ?
false

---

- Test system: SNB-75
- test_description: NCI tumour cell line growth inhibition, 48 h
Active and inactive are the calls of the source. Cut-off read from the data, not from the text of the source: active = GI50 up to about 1.1 µM and inactive = higher.
The following compounds are listed with their measured GI50 values.

Sample answers from the record:
compound	result_type	reported_value
COc1c(OC(C)C)cc2cc(O)c(C(=O)NC3Cc4ccc(c(Cl)n4)O[C@@H]4C=C5C#C/C(=C\C#CC6OC56C4OC4CC(C)(O)C(O)C(C)O4)C(OC4CC(O)C(N(C)C)C(C)O4)COC3=O)cc2c1OC (some centres undefined)	GI50	> 36.3 µM (inactive)
CCN(CC)c1ccc(/N=N/c2ccc(-c3nc4ccc[n+](C)c4o3)cc2)cc1	GI50	11.6 µM (inactive)
O=C(CC1(O)C(=O)Nc2c(Cl)ccc(Cl)c21)c1ccco1 (centres undefined)	GI50	27 µM (inactive)
CCN1C2=NC(=O)N(C)C(=O)C2(Cl)C(C(SC)S(=O)(=O)c2ccc(C)cc2)c2ccccc21 (centres undefined)	GI50	20.7 µM (inactive)
BrCc1ccc2ccc3ccc(CBr)nc3c2n1	GI50	1.32 µM (inactive)
CN(CC(=O)O)c1ncc2c(n1)CCCC2	GI50	> 100 µM (inactive)
Cc1cccc(/N=C/C=C(\Cl)c2ccc3ccccc3c2)c1	GI50	> 39.3 µM (inactive)
COc1ccc(/C=C/C(=O)c2nc3ccccc3[nH]2)cc1	GI50	19.8 µM (inactive)

Item under review: CC(C)NC(=O)OCc1c(COC(=O)NC(C)C)c(-c2ccc[n+](COC(=O)C3CCCCC3)c2)n2c1CCC2 . Reported GI50?
46.8 µM (inactive)

Then OC(C1CO1)C(O)C1CO1 (centres undefined) ?
7.96 µM (inactive)

Then COC(=O)C(F)C(Br)C(=O)OC (centres undefined) ?
12.3 µM (inactive)

Then CCC(=O)NC(Nc1cccc(F)c1)(C(F)(F)F)C(F)(F)F ?
> 100 µM (inactive)

Then Cc1cc(C)c(-n2c(-c3ccccc3)cs/c2=N\N=C2C=C(C(C)(C)C)C(=O)C(C(C)(C)C)=C2)c(C)c1 ?
21.3 µM (inactive)

Then O=C1CSC(c2cccc(Cl)c2)N1c1c(O)c(Cl)cc(Br)c1Cl (centres undefined) ?
29.4 µM (inactive)
